Data credit: patent US5461057A

test system: histamine-induced dyspnea; test: Bronchodilator (in vivo) Guinea Pig Dyspnea; conditions: Cavia porcellus, 1 h; 100 mg/kg, oral, one hour before histamine challenge; read-out: DYSP survivors (converted)
The entries below come with measured responders at 100 mg/kg values attached.
Please state the figure in %; there is no need to write the unit.

Use these answered entries as a reference point.
INSERT INTO assay_data (molecule, property_name, reported) VALUES
  ('COc1ccc(C2(O)c3ccc(Cl)cc3C3C4CCC(CC32)N4C)cc1 (stereo not shown) [ZZ]', 'responders at 100 mg/kg', 33.3),
  ('CN1C2CCC1C1C(=C(c3cccc(C(F)(F)F)c3)c3ccccc31)C2 (stereo not shown) [L]', 'responders at 100 mg/kg', 100),
  ('CN1C2CCC1C1c3ccccc3C(O)(c3ccc(F)cc3)C1C2 (stereo not shown) [SS]', 'responders at 100 mg/kg', 100);

Answer with responders at 100 mg/kg of COc1ccc(C2(O)c3ccccc3C3C4CCC(CC32)N4)cc1 (stereo not shown) [JJ] measured for histamine-induced dyspnea.
66.7

Please indicate recorded responders at 100 mg/kg of COc1ccc(C2(O)c3cc(Cl)ccc3C3C4CCC(CC32)N4C)cc1 (stereo not shown) [XX] measured with histamine-induced dyspnea.
100

Would you please give the reported responders at 100 mg/kg of COc1ccc(C2(O)c3c(Cl)cccc3C3C4CCC(CC32)N4C)cc1 (stereo not shown) [BBB] with histamine-induced dyspnea?
33.3

State the measured responders at 100 mg/kg (histamine-induced dyspnea) of CN1C2CCC1C1c3ccc(Cl)cc3C(O)(c3ccccc3)C1C2 (stereo not shown) [YY]
66.7

For histamine-induced dyspnea, give the measured responders at 100 mg/kg of the entry COc1ccc(C2=C3CC4CCC(N4)C3c3ccccc32)cc1 (stereo not shown) [Compound B]
0

Check histamine-induced dyspnea data and give responders at 100 mg/kg for COc1ccc(C2(O)c3cc(F)ccc3C3C4CCC(CC32)N4C)cc1 (stereo not shown) [CCC] .
66.7

Find responders at 100 mg/kg for CSc1ccc(C2=C3CC4CCC(C3c3ccccc32)N4C)cc1 (stereo not shown) [F] on histamine-induced dyspnea and write it down.
0

----------
# reported CC50 at 6 h; entries follow
assay: Calcein cytotoxicity assay; assay type: cell-based; settings: human, lox melanoma cells; 6 hours, calcein AM assay; read-out: 6 Hr Tox LD50
Entry rule: numbers only, all in µM.

INSERT INTO assay_data (molecule, property_name, units_label, reported) VALUES
  ('CSc1ccc(C2=C3CC4CCC(C3c3ccccc32)N4C)cc1 (centres unmarked) [F]', 'CC50 at 6 h', 'µM', 19.9),
  ('Cc1ccc(C2=C3CC4CCC(C3c3ccccc32)N4C)cc1 (centres unmarked) [J]', 'CC50 at 6 h', 'µM', 30.6),
  ('COc1ccc(C2=C3CC4CCC(N4)C3c3ccccc32)cc1 (centres unmarked) [Compound B]', 'CC50 at 6 h', 'µM', 24.6),
  ('CN1C2CCC1C1C(=C(c3ccc(Cl)cc3)c3cc(F)ccc31)C2 (centres unmarked) [Compound A]', 'CC50 at 6 h', 'µM', 5.9);

Proceeding to the next molecule to report its CC50 at 6 h.
Consider the molecule CN1C2CCC1C1C(=C(c3ccc(Cl)cc3)c3ccccc31)C2 (centres unmarked) [C] and give its recorded CC50 at 6 h.
22.5

----------
In this section we review reported inhibition at 10 µM values for a set of molecules.
test system: LOX human melanoma cell adhesion to human fibronectin; test: LOX melanoma cell adhesion to fibronectin; assay type: cell-based; conditions: Homo sapiens, LOX, 10 μM; read-out: % Inhibition at 10 μM
Reply with just the number (in %).

Respond only with inhibition at 10 µM recorded for CN1C2CCC1C1c3ccc(Cl)cc3C(O)(c3ccccc3)C1C2 (stereo not drawn)
-14.6

# return recorded inhibition at 10 µM for input CN1C2CCC1C1C(=C(c3ccc(F)cc3)c3cc(F)ccc31)C2 (stereo not drawn)
37.5

Consider the molecule CN1C2CCC1C1C(=C(c3ccc(Cl)c(C(F)(F)F)c3)c3ccccc31)C2 (stereo not drawn) and give its recorded inhibition at 10 µM.
7

Provide only the value of recorded inhibition at 10 µM for COc1ccc(C2C3=C(c4ccccc42)C2CCC(C3)N2C)cc1OC (stereo not drawn)
-30

Recall and state the measured inhibition at 10 µM for CN1C2CCC1C1c3ccccc3C(c3ccccc3)C1C2 (stereo not drawn) .
-1.8

Identify inhibition at 10 µM associated with the molecule CN1C2CCC1C1c3ccccc3C(O)(c3ccc4c(c3)OCO4)C1C2 (stereo not drawn)
1.2

Return the recorded inhibition at 10 µM value; entry: COc1ccc(C2C3=C(c4ccccc42)C2CCC(C3)N2C)cc1 (stereo not drawn)
-1.2

State, in one line, measured inhibition at 10 µM of CN1C2CCC1C1C(=C(c3ccccc3)c3ccc(F)cc31)C2 (stereo not drawn)
18.4

----------
tested on: LOX human melanoma cell adhesion to human fibronectin; assay: LOX melanoma cell adhesion to fibronectin; type: cell-based; settings: Homo sapiens, LOX, 10 μM; read-out: % Inhibition at 10 μM
# reported inhibition at 10 µM; entries follow
Field: numeric (%). Do not append units.

INSERT INTO assay_data (compound, study_system, reported) VALUES
  ('CN1C2CCC1C1=C(C2)C(c2ccc(F)cc2)c2ccccc21 (stereo not shown) [W]', 'LOX human melanoma cell adhesion to human fibronectin', 36.3);

Answer with the recorded inhibition at 10 µM for the compound listed here: CN1C2CCC1C1c3ccccc3C(O)(c3ccccc3C(F)(F)F)C1C2 (stereo not shown) [TT]
16.7

// Input: CN1C2CCC1C1=C(C2)C(c2cccs2)c2ccccc21 (stereo not shown) [GGG] . Output its inhibition at 10 µM only.
-27.6

Read the entry COc1ccc2c(c1)C1C3CCC(CC1C2(O)c1ccccc1)N3C (stereo not shown) [UU] and write its reported inhibition at 10 µM.
10.3

Supply inhibition at 10 µM value. Item: CN1C2CCC1C1C(=C(c3ccc(F)cc3)c3cc(Cl)ccc31)C2 (stereo not shown) [Compound E]
49.5

Please give the documented inhibition at 10 µM of COc1ccc(C2(O)c3c(Cl)cccc3C3C4CCC(CC32)N4C)cc1 (stereo not shown) [BBB]
-11.8

Determine its reported inhibition at 10 µM: CN1C2CCC1C1C(=C(c3ccc(F)cc3)c3ccccc31)C2 (stereo not shown) [K]
27.6

----------
Test system: LOX human melanoma cell adhesion to human fibronectin
Test: LOX melanoma cell adhesion to fibronectin
Format: cell-based
Settings: Homo sapiens, LOX; Table 4; 1 hour adhesion; read-out: LOX FN IC50
Text: Adhesion assays were run essentially as described previously (Pai et al., J. Biomed. Res. 2: 53, 1992). […] Adherent cells were quantitated by reading the fluorescence on a Cytofluor 2300 fluorescent plate reader (Millipore) at 485 nm excitation and 530 nm emission. […]
property name: pIC50
Just so you know, pIC50 here is -log10 of the concentration in molar units; reply with that number alone.

INSERT INTO assay_data (compound, property_name, reported) VALUES
  ('COc1ccc2c(c1)C1=C(CC3CCC1N3C)C2c1ccccc1 (centres unmarked) [Z]', 'pIC50', 4.55),
  ('CN1C2CCC1C1C(=C(c3cccc(F)c3)c3ccccc31)C2 (centres unmarked) [O]', 'pIC50', 4.95),
  ('CN1C2CCC1C1C(=C(c3ccccc3)c3cc(F)ccc31)C2 (centres unmarked) [I]', 'pIC50', 5.12),
  ('COc1ccc(C2C3=C(c4ccccc42)C2CCC(C3)N2)cc1 (centres unmarked) [Compound X]', 'pIC50', 4.82);

Find the measured pIC50 of CN1C2CCC1C1=C(C2)C(c2ccc(F)cc2)c2ccccc21 (centres unmarked) [W] and report it.
4.76

Provide only the value of recorded pIC50 for CN1C2CCC1C1C(=C(c3cccc(Cl)c3)c3ccccc31)C2 (centres unmarked) [D]
5.13

Provide one value: measured pIC50 of CN1C2CCC1C1C(=C(c3ccc(F)cc3)c3cc(Cl)ccc31)C2 (centres unmarked) [Compound E]
5.21

Provide one value: measured pIC50 of CN1C2CCC1C1C(=C(c3ccccc3)c3ccccc31)C2 (centres unmarked) [T]
4.71

Return pIC50 for the following compound: CN1C2CCC1C1C(=C(c3cccc(C(F)(F)F)c3)c3ccccc31)C2 (centres unmarked) [L]
4.70

Please list pIC50 recorded for the compound CN1C2CCC1C1C(=C(c3ccc(F)cc3)c3ccccc31)C2 (centres unmarked) [K]
4.81

For the compound COc1ccc(C2=C3CC4CCC(C3c3ccccc32)N4C)cc1 (centres unmarked) [R] , give its measured pIC50 value.
4.82

Please supply the value of reported pIC50 for the item CN1C2CCC1C1C(=C(c3ccc(F)cc3)c3cc(F)ccc31)C2 (centres unmarked) [Compound H]
5.19

Read the entry CN1C2CCC1C1C(=C(c3ccccc3C(F)(F)F)c3ccccc31)C2 (centres unmarked) [Compound S] and write its reported pIC50.
4.75

Indicate its recorded pIC50; the compound in question is CN1C2CCC1C1C(=C(c3ccccc3)c3ccc(F)cc31)C2 (centres unmarked) [M]
4.90

For CN1C2CCC1C1C(=C(c3cccc(F)c3)c3cc(F)ccc31)C2 (centres unmarked) [Compound G] , write its pIC50.
5.28

Specify measured pIC50 for COc1ccc(C2C3=C(c4ccccc42)C2CCC(C3)N2C)cc1 (centres unmarked) [Y] .
4.67

Provide measured pIC50 value, entry: c1ccc(C2=C3CC4CCC(N4)C3c3ccccc32)cc1 (centres unmarked) [Q]
4.72

Specify reported pIC50 for the compound shown: CN1C2CCC1C1C(=C(c3ccc(Cl)c(C(F)(F)F)c3)c3ccccc31)C2 (centres unmarked) [Compound N]
4.71

Using the record for CN1C2CCC1C1C(=C(c3cccc(F)c3)c3ccc(F)cc31)C2 (centres unmarked) [P] , state its measured pIC50.
4.93
